# Ratio OD(Variant)/OD(WT) per record follows
Biological target: HRgpA-6H (Porphyromonas gingivalis) (UniProt P28784)
Assay: ELISA, FASEBA screening, coated HRgpA-6H; variant OD over parental WT Fab OD
A bare number is all that is needed in reply.

binder	Ratio OD(Variant)/OD(WT)
KB001 parental mouse Fab FASEBA variant VH K64Q (Fab, V domains shown) VH: EVQLKQSGPGLVAPSQSLSITCTVSGFSLSIYSVHWVRQPPGKGLEWLGMIWGGGSSDYNSALQSRLSISKDNSKSQVFLKMNSLQTDDTAMYYCARNGNFYAMDYWGQGTSVTVSS VL: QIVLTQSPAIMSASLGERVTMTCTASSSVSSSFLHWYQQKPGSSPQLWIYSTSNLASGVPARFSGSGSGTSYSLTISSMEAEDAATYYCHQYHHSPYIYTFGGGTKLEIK	0.954
KB001 parental mouse Fab FASEBA variant VH A103L (Fab, V domains shown) VH: EVQLKQSGPGLVAPSQSLSITCTVSGFSLSIYSVHWVRQPPGKGLEWLGMIWGGGSSDYNSALKSRLSISKDNSKSQVFLKMNSLQTDDTAMYYCARNGNFYLMDYWGQGTSVTVSS VL: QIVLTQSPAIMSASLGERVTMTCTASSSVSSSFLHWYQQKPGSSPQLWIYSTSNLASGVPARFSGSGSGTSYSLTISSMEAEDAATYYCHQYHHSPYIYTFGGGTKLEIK	0.908

Next binder, Ratio OD(Variant)/OD(WT) to be filled in.
Query: Recorded Ratio OD(Variant)/OD(WT) for KB001 parental mouse Fab FASEBA variant VH M104L (Fab, V domains shown) VH: EVQLKQSGPGLVAPSQSLSITCTVSGFSLSIYSVHWVRQPPGKGLEWLGMIWGGGSSDYNSALKSRLSISKDNSKSQVFLKMNSLQTDDTAMYYCARNGNFYALDYWGQGTSVTVSS VL: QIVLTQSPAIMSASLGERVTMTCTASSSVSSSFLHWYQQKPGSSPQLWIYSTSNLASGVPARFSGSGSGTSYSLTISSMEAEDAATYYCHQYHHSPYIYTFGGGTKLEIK , please?
Reply: 0.904
